Overview of recorded MIC for various compounds
System: Staphylococcus aureus
Test: Antibacterial activity against Staphylococcus aureus ATCC 29213 assessed as bacterial growth inhibition incubated for 24 hrs by broth dilution method
Format: functional
Conditions: ATCC 29213, 24 h
Could you give me the number in µg/mL? Just the number is fine.

See these solved cases before continuing.
test_smiles	MIC [µg/mL]
C=C[C@]1(C)C[C@@H](OC(=O)CSc2ccccc2NC(=O)CN2CCN(c3ccccc3Cl)CC2)[C@]2(C)[C@H](C)CC[C@]3(CCC(=O)[C@H]32)[C@@H](C)[C@@H]1O	8
C=C[C@]1(C)C[C@@H](OC(=O)CSc2ccccc2NC(=O)CN2CCC(O)CC2)[C@]2(C)[C@H](C)CC[C@]3(CCC(=O)[C@H]32)[C@@H](C)[C@@H]1O	0.125

In the following, a different compound is considered.
Query string: MIC for C=C[C@]1(C)C[C@@H](OC(=O)CSc2ccccc2NC(=O)CN2CCN(c3cccc(Cl)c3)CC2)[C@]2(C)[C@H](C)CC[C@]3(CCC(=O)[C@H]32)[C@@H](C)[C@@H]1O ?
Result string: 1

From: ChEMBL document CHEMBL4359884
